assay: Oral bioavailability in 12 hrs fasted Sprague-Dawley rat at 10 mg/kg measured upto 720 mins by HPLC-MS/MS analysis; assay type: ADME, organism-based; conditions: in vivo
propertyMeasured: bioavailability (%)

> print(dat)
                                inputsmiles  propertymeasured  measurementunits  recordedvalue
1  O=c1c2c([nH]c3nc(SCc4nc5ccccc5s4)nn13)CCC2   bioavailability                 %           63.9

---

test: MRT (0 to t) in 12 hrs fasted Sprague-Dawley rat at 10 mg/kg, po measured upto 720 mins by HPLC-MS/MS analysis; assay type: ADME, organism-based; conditions: in vivo
propertyMeasured: MRT last at 12 h (h)

> print(dat)
                                inputsmiles  propertymeasured  recordedvalue
1  O=c1c2c([nH]c3nc(SCc4nc5ccccc5s4)nn13)CCC2  MRT last at 12 h           6.87

---

molecular target: Voltage-gated inwardly rectifying potassium channel KCNH2 (Homo sapiens, UniProt Q12809); test: Inhibition of human ERG expressed in CHO cells by QPatch assay
Sequence (Q12809 whole entry): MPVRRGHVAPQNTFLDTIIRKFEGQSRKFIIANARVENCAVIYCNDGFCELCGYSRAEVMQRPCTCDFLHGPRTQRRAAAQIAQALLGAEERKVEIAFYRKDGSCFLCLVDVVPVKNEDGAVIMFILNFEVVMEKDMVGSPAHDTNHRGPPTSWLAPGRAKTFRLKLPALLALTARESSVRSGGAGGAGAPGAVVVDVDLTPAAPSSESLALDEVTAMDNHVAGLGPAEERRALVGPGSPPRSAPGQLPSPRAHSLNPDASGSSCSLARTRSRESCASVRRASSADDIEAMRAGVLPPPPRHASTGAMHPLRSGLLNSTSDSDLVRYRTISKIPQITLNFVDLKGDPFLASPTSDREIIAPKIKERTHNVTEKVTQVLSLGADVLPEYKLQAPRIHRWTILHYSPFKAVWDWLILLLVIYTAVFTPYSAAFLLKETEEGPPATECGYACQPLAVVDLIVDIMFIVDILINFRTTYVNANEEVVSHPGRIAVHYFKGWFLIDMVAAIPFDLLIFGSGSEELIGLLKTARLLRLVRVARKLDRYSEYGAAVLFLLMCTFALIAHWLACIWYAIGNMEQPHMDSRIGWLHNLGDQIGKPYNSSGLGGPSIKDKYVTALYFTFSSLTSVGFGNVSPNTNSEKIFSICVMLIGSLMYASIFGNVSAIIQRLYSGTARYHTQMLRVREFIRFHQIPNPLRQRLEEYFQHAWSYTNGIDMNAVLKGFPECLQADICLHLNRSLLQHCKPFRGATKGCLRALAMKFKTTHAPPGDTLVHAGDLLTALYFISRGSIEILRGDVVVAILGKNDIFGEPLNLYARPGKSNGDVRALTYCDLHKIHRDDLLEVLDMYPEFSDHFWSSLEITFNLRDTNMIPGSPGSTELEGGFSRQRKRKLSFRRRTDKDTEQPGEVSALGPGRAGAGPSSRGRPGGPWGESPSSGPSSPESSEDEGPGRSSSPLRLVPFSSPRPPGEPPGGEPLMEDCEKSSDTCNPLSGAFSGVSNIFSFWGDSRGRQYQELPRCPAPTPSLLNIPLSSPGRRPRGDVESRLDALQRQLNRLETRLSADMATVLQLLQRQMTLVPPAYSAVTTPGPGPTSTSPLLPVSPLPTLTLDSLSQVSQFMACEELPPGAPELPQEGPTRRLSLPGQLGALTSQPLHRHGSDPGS
propertyMeasured: IC50

> print(dat)
                                inputsmiles  recordedvalue
1  O=c1c2c([nH]c3nc(SCc4nc5ccccc5s4)nn13)CCC2        > 50 µM

---

experiment: Tmax in 12 hrs fasted Sprague-Dawley rat at 10 mg/kg, po measured upto 720 mins by HPLC-MS/MS analysis; format: ADME, organism-based; conditions: in vivo
propertyMeasured: Tmax (h)

> print(dat)
                                inputsmiles  recordedvalue
1  O=c1c2c([nH]c3nc(SCc4nc5ccccc5s4)nn13)CCC2              6

---

experiment: Half life in 12 hrs fasted Sprague-Dawley rat at 10 mg/kg, po measured upto 720 mins by HPLC-MS/MS analysis; format: ADME, organism-based; details: in vivo
propertyMeasured: half-life (h)

> print(dat)
                                inputsmiles  propertymeasured  recordedvalue
1  O=c1c2c([nH]c3nc(SCc4nc5ccccc5s4)nn13)CCC2         half-life           4.07

---

assay: Toxicity in Sprague-Dawley rat assessed as maximum tolerated dose measured for 14 days administered as single oral dose; conditions: in vivo, time 14 day
propertyMeasured: MTD at 336 h

> print(dat)
                                inputsmiles  recordedvalue
1  O=c1c2c([nH]c3nc(SCc4nc5ccccc5s4)nn13)CCC2     1000 mg/kg

---

assay: MRT (0 to infinity) in 12 hrs fasted Sprague-Dawley rat at 10 mg/kg, po measured upto 720 mins by HPLC-MS/MS analysis; type: ADME, organism-based; settings: in vivo
propertyMeasured: MRT inf

> print(dat)
                                inputsmiles  propertymeasured  recordedvalue
1  O=c1c2c([nH]c3nc(SCc4nc5ccccc5s4)nn13)CCC2           MRT inf         7.24 h

---

assay: Half life in 12 hrs fasted Sprague-Dawley rat at 1 mg/kg, iv measured upto 720 mins by HPLC-MS/MS analysis; type: ADME, organism-based; conditions: in vivo
propertyMeasured: half-life (h)

> print(dat)
                                inputsmiles  recordedvalue
1  O=c1c2c([nH]c3nc(SCc4nc5ccccc5s4)nn13)CCC2           5.37

---

experiment: Clearance in 12 hrs fasted Sprague-Dawley rat at 1 mg/kg, iv measured upto 720 mins by HPLC-MS/MS analysis; assay type: ADME, organism-based; conditions: in vivo
propertyMeasured: clearance (mL/min/kg)

> print(dat)
                                inputsmiles  propertymeasured  recordedvalue
1  O=c1c2c([nH]c3nc(SCc4nc5ccccc5s4)nn13)CCC2         clearance           18.3

---

test: Cmax in 12 hrs fasted Sprague-Dawley rat at 10 mg/kg, po measured upto 720 mins by HPLC-MS/MS analysis; format: ADME, organism-based; details: in vivo
propertyMeasured: Cmax (ng/mL)

> print(dat)
                                inputsmiles  propertymeasured  recordedvalue
1  O=c1c2c([nH]c3nc(SCc4nc5ccccc5s4)nn13)CCC2              Cmax            504

---

assay: MRT (0 to infinity) in 12 hrs fasted Sprague-Dawley rat at 1 mg/kg, iv measured upto 720 mins by HPLC-MS/MS analysis; assay type: ADME, organism-based; details: in vivo
propertyMeasured: MRT inf (h)

> print(dat)
                                inputsmiles  recordedvalue
1  O=c1c2c([nH]c3nc(SCc4nc5ccccc5s4)nn13)CCC2           5.49

---

experiment: Tmax in 12 hrs fasted Sprague-Dawley rat at 1 mg/kg, iv measured upto 720 mins by HPLC-MS/MS analysis; format: ADME, organism-based; details: in vivo
propertyMeasured: Tmax (min)

> print(dat)
                                inputsmiles  measurementunits  recordedvalue
1  O=c1c2c([nH]c3nc(SCc4nc5ccccc5s4)nn13)CCC2               min           4.98

---

assay: MRT (0 to t) in 12 hrs fasted Sprague-Dawley rat at 1 mg/kg, iv measured upto 720 mins by HPLC-MS/MS analysis; type: ADME, organism-based; details: in vivo
propertyMeasured: MRT last at 12 h (h)

> print(dat)
                                inputsmiles  measurementunits  recordedvalue
1  O=c1c2c([nH]c3nc(SCc4nc5ccccc5s4)nn13)CCC2                 h           4.42

---

biological target: hERG (KCNH2) (Homo sapiens, UniProt Q12809); assay: Inhibition of human ERG expressed in CHO cells at 40 uM by QPatch assay relative to control; assay type: toxicity, cell-based; details: CHO cells expressing human ERG
Sequence (Q12809 whole entry): as above
propertyMeasured: inhibition at 40 µM (%)

> print(dat)
                                inputsmiles  measurementunits  recordedvalue
1  O=c1c2c([nH]c3nc(SCc4nc5ccccc5s4)nn13)CCC2                 %             32
